Would you mind telling me the reported IC50 of each entry?
biological target: Aurora A (Homo sapiens (Human)); test: Aurora A kinase activity, radioactive 33P incorporation into NuMA fragment
Sequence (O14965 whole entry, the tested form may be a part): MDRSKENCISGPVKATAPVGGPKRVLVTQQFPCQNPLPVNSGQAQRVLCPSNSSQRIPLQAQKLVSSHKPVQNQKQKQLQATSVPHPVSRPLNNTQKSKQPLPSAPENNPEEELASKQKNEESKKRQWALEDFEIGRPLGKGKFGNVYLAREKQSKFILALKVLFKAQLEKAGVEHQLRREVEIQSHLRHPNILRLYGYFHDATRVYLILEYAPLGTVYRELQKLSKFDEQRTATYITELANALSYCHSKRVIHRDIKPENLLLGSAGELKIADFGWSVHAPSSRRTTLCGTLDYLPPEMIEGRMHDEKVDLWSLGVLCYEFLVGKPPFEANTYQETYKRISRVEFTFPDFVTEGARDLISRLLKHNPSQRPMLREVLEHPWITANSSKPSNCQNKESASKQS
Numbers only, in nM.

{"columns": ["compound", "measured.result"],
 "data": [
  ["CCOC(=O)c1[nH]cc2c1NC1=C(C(=O)CC(C)(C)C1)C2c1cccc(Oc2nc3ccccc3[nH]2)c1 (centres unmarked)", 3]
]}

Please examine the following record next.
Request: IC50 for CCOC(=O)c1[nH]cc2c1NC1=C(C(=O)CC(C)(C)C1)C2c1cccc(Sc2nc3ccccc3[nH]2)c1 (centres unmarked) ?
Result: 102

The measured values listed here are drawn from patent US9073917B2.
